# METHOD_NOTES: Drug level in C57BL/6J mouse brain at 30 mg/kg, po after 1 hrs by LC/MS-MS analysis
# Type: ADME, organism-based
# SETUP_CONDITIONS: read-out: Drug uptake
ASSAY_ENDPOINT: concentration at 1 h (ng/g)
Number in ng/g, nothing else.

So for `CC1CCN(c2ccnc(NCc3cn(C)cn3)n2)CC1` , the logged concentration at 1 h turned out to be 2600

---

# METHOD_NOTES: Drug level in C57BL/6J mouse plasma at 30 mg/kg, po after 0.5 hrs by LC/MS-MS analysis
# Type: ADME, organism-based
ASSAY_ENDPOINT: concentration at 0.5 h (ng/mL)
Number in ng/mL, nothing else.

So for CC1CCN(c2ccnc(NCc3cn(C)cn3)n2)CC1 [TP-040] , the logged concentration at 0.5 h turned out to be 2800

---

# STUDY_TARGET: Protein O-GlcNAcase (Homo sapiens, UniProt O60502)
# Sequence (O60502 whole entry): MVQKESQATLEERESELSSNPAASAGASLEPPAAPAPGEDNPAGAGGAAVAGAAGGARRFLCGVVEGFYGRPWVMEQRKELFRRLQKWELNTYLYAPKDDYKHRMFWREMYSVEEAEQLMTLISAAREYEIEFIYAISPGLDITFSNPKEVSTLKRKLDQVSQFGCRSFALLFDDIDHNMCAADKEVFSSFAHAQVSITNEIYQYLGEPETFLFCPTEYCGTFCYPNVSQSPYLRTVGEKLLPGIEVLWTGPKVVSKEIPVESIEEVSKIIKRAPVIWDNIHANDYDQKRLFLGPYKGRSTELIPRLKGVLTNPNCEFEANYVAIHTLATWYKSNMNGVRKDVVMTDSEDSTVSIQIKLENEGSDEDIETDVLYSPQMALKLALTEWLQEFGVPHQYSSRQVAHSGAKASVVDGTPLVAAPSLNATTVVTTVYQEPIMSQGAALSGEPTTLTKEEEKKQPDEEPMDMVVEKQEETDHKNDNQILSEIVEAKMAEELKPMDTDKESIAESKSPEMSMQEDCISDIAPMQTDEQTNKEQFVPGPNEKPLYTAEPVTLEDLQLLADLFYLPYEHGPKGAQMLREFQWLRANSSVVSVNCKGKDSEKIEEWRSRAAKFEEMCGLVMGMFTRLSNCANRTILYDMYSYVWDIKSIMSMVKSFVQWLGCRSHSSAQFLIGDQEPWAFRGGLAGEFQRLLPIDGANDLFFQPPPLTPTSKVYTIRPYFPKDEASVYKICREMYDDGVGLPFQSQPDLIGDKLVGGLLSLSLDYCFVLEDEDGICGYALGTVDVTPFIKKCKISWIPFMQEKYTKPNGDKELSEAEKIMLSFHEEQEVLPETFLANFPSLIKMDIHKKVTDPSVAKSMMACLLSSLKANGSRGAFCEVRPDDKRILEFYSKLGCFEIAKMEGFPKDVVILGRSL
# METHOD_NOTES: Inhibition of OGA in human SH-SY5Y cells assessed as increase in O-GIcNAcylated protein levels incubated for 48 hrs by in-cell Western assay
ASSAY_ENDPOINT: pEC50
By convention, pEC50 is the negative base-10 log of a molar concentration.

So for CC1CCN(c2ccnc(NCc3cn(C)cn3)n2)CC1 [TP-040] , the logged pEC50 turned out to be 6.35

---

# METHOD_NOTES: Unbound drug level in C57BL/6J mouse brain at 30 mg/kg, po by equilibrium dialysis method
# Assay type: ADME, organism-based
ASSAY_ENDPOINT: fraction unbound
Lab note: write the figure by itself, no unit.

So for `CC1CCN(c2ccnc(NCc3cn(C)cn3)n2)CC1` , the logged fraction unbound turned out to be 0.14

---

# METHOD_NOTES: Unbound brain-to-plasma concentration ratio in C57BL/6J mouse at 30 mg/kg, po after 1 hrs by equilibrium dialysis
# Type: ADME, organism-based
# SETUP_CONDITIONS: read-out: K(p,uu,brain)
ASSAY_ENDPOINT: Kp uu at 1 h
Lab note: write the figure by itself, no unit.

So for CC1CCN(c2ccnc(NCc3cn(C)cn3)n2)CC1 [TP-040] , the logged Kp uu at 1 h turned out to be 0.36

---

# METHOD_NOTES: Inhibition of human placental beta-hexosaminidase using 4-methylumbelliferyl-N-acetyl-beta-D-glucosaminide dihydrate as fluorogenic substrate preincubated with enzyme followed by substrate addition and measured every 5 mins for 60 mins by fluorescence based analysis
# Format: tissue-based, Placenta
pIC50: −log10 of the molar value.
ASSAY_ENDPOINT: pIC50

So for CC1CCN(c2ccnc(NCc3cn(C)cn3)n2)CC1 [TP-040] , the logged pIC50 turned out to be < 5.00
